Source listed as ChEMBL document CHEMBL5058577.

System: U2OS
METHOD SUMMARY: Multiplex assay against U2OS
Format: toxicity, cell-based
STATED CONDITIONS: human, 48 h, 10 µM, compound concentration 10 uM, replicate 1
Output rule met for Population Mitotic Cells (%) not less than 10%; output rule not met otherwise.

[[record]]
molecule = "COc1ccccc1N1CCN(C[C@@H](C(=O)NC(C)(C)C)c2ccccc2)CC1.Cl.Cl"
qualitative_label = "rule met"

[[record]]
molecule = "CN(C)C(=O)Cn1cc(-c2ccc(-c3cncc4ccccc34)cc2)cn1"
qualitative_label = "rule met"

[[record]]
molecule = "Cl.N=C(N)NC(=O)Cc1c(Cl)cccc1Cl [GUANFACINE HYDROCHLORIDE]"
qualitative_label = "rule not met"

[[record]]
molecule = "NCCc1cn(S(=O)(=O)c2c(Cl)nc3sccn23)c2ccccc12.O=C(O)C(=O)O"
qualitative_label = "rule not met"

[[record]]
molecule = "CC[C@@H](C)Nc1nc(C)nc2c(-c3ccc(OC)nc3C)c(C)nn12"
qualitative_label = "rule not met"

[[record]]
molecule = "O=C1[C@H](Cc2ccc(O)cc2)N2C(=O)CCN(C(=O)NCc3ccccc3)[C@H]2CN1Cc1cccc2ccccc12"
qualitative_label = "rule met"

